Test system: DMS-114
METHOD DESCRIPTION: NCI tumour cell line growth inhibition, 48 h
Active and inactive are the calls of the source. Cut-off read from the data, not from the text of the source: active = GI50 up to about 1.1 µM and inactive = higher.
One label from this list, please: active, inactive

Use these answered entries as a reference point.
Query block: Just curious, what result did Cc1cc(N(CCC#N)S(=O)(=O)c2ccccc2)ccc1/C=N/c1ccc(C(=O)O)cc1 get here?
Result block: inactive

Query block: Just curious, what result did CCN1C(=O)C(=CN)C(=O)N(CC)C1=O get here?
Result block: inactive

Query block: Just curious, what result did O=C1c2nn(-c3ccccc3)nc2C(c2ccccc2)N1c1ccccc1 (stereo unspecified) get here?
Result block: inactive

Query block: Just curious, what result did N#CNc1nc(N)c(-c2ccc(Cl)cc2)c(C(=O)Nc2nccs2)n1 get here?
Result block: inactive

Query block: Just curious, what result did COc1ccccc1NC(=O)CC(=O)N1N=C(C)C(/N=N/c2ccc(S(N)(=O)=O)cc2)C1=O (stereo unspecified) get here?
Result block: inactive

Query block: Just curious, what result did CCOC(=O)NC(=O)c1cn(CCOCCOC(=O)NCCCCCCNC(=O)OCCOCCn2cc(C(=O)NC(=O)OCC)c(=O)[nH]c2=O)c(=O)[nH]c1=O get here?
Result block: inactive

Further cases:
Query block: Just curious, what result did CCC(C(=O)O)c1ccc(OC)cc1 (stereo unspecified) get here?
Result block: inactive

Query block: Just curious, what result did CC(=O)N1c2ccccc2N(C(C)=O)C1c1ccc(C2N(C(C)=O)c3ccccc3N2C(C)=O)[nH]1 get here?
Result block: inactive

Query block: Just curious, what result did O=C1CCC2(c3ccc(Cl)cc3)Nc3cc(Cl)ccc3N12 (stereo unspecified) get here?
Result block: inactive

Query block: Just curious, what result did CCOC(=O)N1CCc2cc(OC)c(OC)cc2/C1=C/c1ccc(OC)c(OC)c1 get here?
Result block: inactive

Query block: Just curious, what result did O=C(Nc1cc([N+](=O)[O-])cc([N+](=O)[O-])c1)OC1C2CCC1C1OC1C2 (stereo unspecified) get here?
Result block: inactive

Query block: Just curious, what result did CNC(=O)OCc1c2ccncc2c(C)c2c1[nH]c1ccc(OC)cc12 get here?
Result block: active

Query block: Just curious, what result did COC(=O)/C(=N\NC(C)(C)C)C(C(=O)OC)C(=O)C(=O)Nc1cc(Cl)ccc1Cl (stereo unspecified) get here?
Result block: inactive

Query block: Just curious, what result did O=C(O)C1=CCCc2ccc3ccccc3c21 get here?
Result block: inactive

Query block: Just curious, what result did COc1cc(/C=C/C(=O)Oc2ccc(NC(C)=O)cc2)ccc1C(=O)O/C=C/c1ccccc1 get here?
Result block: inactive

Query block: Just curious, what result did COc1ccc(C[C@H](N)C(=O)N2C[C@H](CO)C[C@H](n3ccc(=O)[nH]c3=O)C2)cc1 get here?
Result block: inactive
